target: Protein cereblon/Androgen receptor (Homo sapiens, UniProt P10275+Q96SW2); assay: PROTAC activity at CRBN/AR in human 22Rv1 cells assessed as induction of AR degradation at 0.1 uM incubated for 24 hrs by Western blot analysis relative to control; assay type: cell-based
Sequence (P10275 whole entry, looked up): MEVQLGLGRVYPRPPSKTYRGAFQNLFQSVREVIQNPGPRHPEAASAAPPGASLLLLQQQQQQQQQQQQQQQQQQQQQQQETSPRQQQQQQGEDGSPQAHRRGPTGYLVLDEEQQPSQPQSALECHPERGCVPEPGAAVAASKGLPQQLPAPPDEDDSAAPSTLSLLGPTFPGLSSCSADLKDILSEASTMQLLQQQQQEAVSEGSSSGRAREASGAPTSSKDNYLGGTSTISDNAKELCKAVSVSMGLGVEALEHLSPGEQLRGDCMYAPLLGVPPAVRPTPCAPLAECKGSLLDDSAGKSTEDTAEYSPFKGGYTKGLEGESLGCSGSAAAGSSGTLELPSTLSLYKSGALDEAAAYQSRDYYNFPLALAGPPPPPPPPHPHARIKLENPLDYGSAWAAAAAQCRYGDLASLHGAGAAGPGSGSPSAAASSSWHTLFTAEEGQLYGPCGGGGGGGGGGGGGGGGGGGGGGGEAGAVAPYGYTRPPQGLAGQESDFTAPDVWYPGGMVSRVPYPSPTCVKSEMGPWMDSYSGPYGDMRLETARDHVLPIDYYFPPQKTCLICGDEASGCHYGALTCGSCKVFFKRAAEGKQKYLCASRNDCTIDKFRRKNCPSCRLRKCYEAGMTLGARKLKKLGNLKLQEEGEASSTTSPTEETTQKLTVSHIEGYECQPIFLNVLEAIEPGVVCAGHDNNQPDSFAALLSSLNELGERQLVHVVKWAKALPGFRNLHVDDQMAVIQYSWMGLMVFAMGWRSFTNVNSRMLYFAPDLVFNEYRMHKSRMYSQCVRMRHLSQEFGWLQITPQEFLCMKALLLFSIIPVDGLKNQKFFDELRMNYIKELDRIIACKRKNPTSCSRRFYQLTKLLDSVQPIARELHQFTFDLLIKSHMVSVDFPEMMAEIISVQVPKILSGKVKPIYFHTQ
Sequence (Q96SW2 whole entry, looked up): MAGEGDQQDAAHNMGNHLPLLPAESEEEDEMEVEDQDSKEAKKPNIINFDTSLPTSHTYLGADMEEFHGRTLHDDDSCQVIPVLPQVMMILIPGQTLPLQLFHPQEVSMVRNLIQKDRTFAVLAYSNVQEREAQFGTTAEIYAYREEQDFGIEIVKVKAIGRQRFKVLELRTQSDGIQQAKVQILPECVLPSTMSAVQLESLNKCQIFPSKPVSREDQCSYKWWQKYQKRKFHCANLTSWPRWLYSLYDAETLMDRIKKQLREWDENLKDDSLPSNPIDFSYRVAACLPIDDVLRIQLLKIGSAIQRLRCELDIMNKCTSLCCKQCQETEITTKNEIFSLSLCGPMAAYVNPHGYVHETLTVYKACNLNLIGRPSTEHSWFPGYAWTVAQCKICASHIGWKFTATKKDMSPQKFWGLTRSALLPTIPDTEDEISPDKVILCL
assay_readout: Activity (%)
Write down the numeric answer in % and omit the unit.

molecule	endpoint_value
CC(C)(c1ccc(OCC2CN(S(C)(=O)=O)C2)cc1)c1cc(Cl)c(OCC2CCN(C(=O)CCCCCNc3ccc4c(c3)C(=O)N(C3CCC(=O)NC3=O)C4=O)CC2)c(C#N)c1 (stereo not given)	78.3
COc1ccc(C(C)(C)c2ccc(OCC3CCN(C(=O)CCCCCNc4ccc5c(c4)C(=O)N(C4CCC(=O)NC4=O)C5=O)CC3)cc2)cc1 (stereo not given)	79.5
CC1(COc2ccc(C(C)(C)c3cc(Cl)c(OCC4CCN(C(=O)CCCCCNc5ccc6c(c5)C(=O)N(C5CCC(=O)NC5=O)C6=O)CC4)c(C#N)c3)cc2)COC1 (stereo not given)	80.8

Query :: What does the data say about its Activity? Entry: CC(C)(c1ccc(OCC2CCOCC2)cc1)c1cc(Cl)c(OCC2CCN(C(=O)CCCCCNc3ccc4c(c3)C(=O)N(C3CCC(=O)NC3=O)C4=O)CC2)c(C#N)c1 (stereo not given)
Result :: 79.3

Query :: Follow-up entry: CC(C)(c1ccc(OCC2CCN(S(C)(=O)=O)CC2)cc1)c1cc(Cl)c(OCC2CCN(C(=O)CCCCCNc3ccc4c(c3)C(=O)N(C3CCC(=O)NC3=O)C4=O)CC2)c(C#N)c1 (stereo not given)
Result :: 78

====

We begin with a simple list: items and their reported Activity.
target: Protein cereblon/Androgen receptor (Homo sapiens, UniProt P10275+Q96SW2); test: PROTAC activity at CRBN/AR in human 22Rv1 cells assessed as induction of AR degradation at 0.01 uM incubated for 24 hrs by Western blot analysis relative to control; assay type: cell-based

Recorded results for 2 compounds are shown here.
compound	Activity
COc1ccc(C(C)(C)c2cc(Cl)c(OCC3CCN(C(=O)CCCCCNc4ccc5c(c4)C(=O)N(C4CCC(=O)N(C)C4=O)C5=O)CC3)c(C#N)c2)cc1 (stereo not drawn)	< 5%
CC(C)(c1ccc(OCc2ccccc2)cc1)c1cc(Cl)c(OCC2CCN(C(=O)CCCCCNc3ccc4c(c3)C(=O)N(C3CCC(=O)NC3=O)C4=O)CC2)c(C#N)c1 (stereo not drawn)	< 5%

Below: the item to evaluate.
Query :: Need Activity, item COc1ccc(C(C)(C)c2cc(Cl)c(OCC3CCN(C(=O)CCCCCNc4cc5c(cc4F)C(=O)N(C4CCC(=O)NC4=O)C5=O)CC3)c(C#N)c2)cc1 (stereo not drawn)
Result :: < 5%

====

test system: Protein cereblon/Androgen receptor (Homo sapiens), P10275+Q96SW2 [UNDEFINED MUTATION]; experiment: PROTAC activity at CRBN/Androgen receptor splice variant 7 in human VCaP cells assessed as induction of AR-V7 degradation at 5 uM incubated for 24 hrs by Western blot analysis relative to control; assay type: cell-based
Sequence (P10275 whole entry, looked up, change not shown, canonical isoform): as the sequence (P10275 whole entry, looked up) above
Sequence (Q96SW2 whole entry, looked up, change not shown, canonical isoform): as the sequence (Q96SW2 whole entry, looked up) above
assay_readout: Activity

Some compounds with recorded Activity:
compound	Activity
CC(C)(c1ccc(OCC2CCN(C3CN(C(=O)CCCCNc4ccc5c(c4)C(=O)N(C4CCC(=O)NC4=O)C5=O)C3)CC2)cc1)c1ccc(OC[C@H](O)CCl)cc1 (stereo partly drawn)	6.4%
CC(C)(c1ccc(OCC2CCN(C(=O)CCCCCCNc3ccc4c(c3)C(=O)N(C3CCC(=O)NC3=O)C4=O)CC2)cc1)c1ccc(OC[C@H](O)CCl)cc1 (stereo partly drawn)	< 5%
CC(C)(c1ccc(OCC2CCN(C(=O)CCCCCCOc3ccc4c(c3)C(=O)N(C3CCC(=O)NC3=O)C4=O)CC2)cc1)c1ccc(OC[C@H](O)CCl)cc1 (stereo partly drawn)	< 5%
CC(C)(c1ccc(OCC2CCN(C3CN(C(=O)CCNc4ccc5c(c4)C(=O)N(C4CCC(=O)NC4=O)C5=O)C3)CC2)cc1)c1ccc(OC[C@H](O)CCl)cc1 (stereo partly drawn)	11.9%
CC(C)(c1ccc(OCC2CCN(C(=O)CCCCC#Cc3ccc4c(c3)C(=O)N(C3CCC(=O)NC3=O)C4=O)CC2)cc1)c1ccc(OC[C@H](O)CCl)cc1 (stereo partly drawn)	26.4%

Query :: # Activity lookup, item CC(C)(c1ccc(OCC2CCN(C(=O)CCCCCCCNc3ccc4c(c3)C(=O)N(C3CCC(=O)NC3=O)C4=O)CC2)cc1)c1ccc(OC[C@H](O)CCl)cc1 (stereo partly drawn)
Result :: 7%

Query :: Record: CC(C)(c1ccc(OCC2CCN(C3CN(C(=O)CNc4ccc5c(c4)C(=O)N(C4CCC(=O)NC4=O)C5=O)C3)CC2)cc1)c1ccc(OC[C@H](O)CCl)cc1 (stereo partly drawn)
Result :: < 5%

Query :: Also need CC(C)(c1ccc(OCC2CCN(C(=O)CCCCNc3cccc4c3C(=O)N(C3CCC(=O)NC3=O)C4=O)CC2)cc1)c1ccc(OC[C@H](O)CCl)cc1 (stereo partly drawn) , thanks.
Result :: < 5%
